Test system: biotinyl-Met-oxazolone
Test: self-aminoacylation, catalytic enhancement (BMO) (fold over background); higher = more active; k-Seq, kA / k0A0; sequences stand for … in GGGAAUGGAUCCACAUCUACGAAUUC…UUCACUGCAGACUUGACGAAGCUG
Fewer inactive variants are shown than the library holds.
I'd appreciate it if you could supply self-aminoacylation values for the items below.
Give bare numbers.

Solved cases below.
[[record]]
monomer_sequence = "CCACACUUCGAGCAAUCCGUC [Fam1B.1 aminoacylation ribozyme variant]"
reported_property = "self-aminoacylation"
recorded_measurement = 1.03

[[record]]
monomer_sequence = "AUUCACCUAGGUCAUCGGGCU [Fam2.2 aminoacylation ribozyme variant]"
reported_property = "self-aminoacylation"
recorded_measurement = 8.6

[[record]]
monomer_sequence = "AAGUUUGCUAAUAGGCGCAAU [Fam3.1 aminoacylation ribozyme variant]"
reported_property = "self-aminoacylation"
recorded_measurement = 1.71

[[record]]
monomer_sequence = "AUGUCUGCUAAUAGUCGCAAG [Fam3.1 aminoacylation ribozyme variant]"
reported_property = "self-aminoacylation"
recorded_measurement = 2.25


As a next step, examine the sequence that follows.
### Prompt Need self-aminoacylation of AUUCUCCUAGGCCAUCGGGUG [Fam2.2 aminoacylation ribozyme variant] , thanks.
### Response 5.37
